assay: chemical genetic growth profiling, strain panel (AID 1159580);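 note: tested at 20 µM; growth read once vehicle control cultures reached saturation at 30 °C; 1 = growth at the plate median or of vehicle wells; lower values mean less growth of the strain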; details: S. cerevisiae deletion strains, growth OD, locus YEL061C, strain CIN8, stronger effect = lower value
Among all 5,500 compounds or so, about 2,000 (36%) were called active. Inconclusive results (about 18%) are left out. Some of the results follow.
measured.endpoint: normalized growth
Lab note: record just the number, no unit beside it.

Worked examples follow.
Could you share which normalized growth value was measured for `O=C1N=C(O)CN1/N=C\c1ccc(-c2ccc([N+](=O)[O-])cc2)o1` ?
1.02

Lookup `O=C1OCCN1/N=C\c1ccc([N+](=O)[O-])o1`
0.999

Lookup `O=C1CNC(=S)N1CCc1ccccn1`
0.999

Further cases:
Could you share which normalized growth value was measured for CC12CCCC(O)(C1)C1CC(C)(C)C1CC2 (stereo not drawn) ?
1

Lookup `CCn1cc(C(=O)O)c(=O)c2cnc(N3CCNCC3)nc21`
0.995
